# PROTOCOL NOTES: brain levels of dapansutrile after fortified feed pellets
# Format: in vivo, mice
# RUN CONDITIONS: mouse, brain (whole brain homogenate), oral, fortified feed pellets 7.5 g/kg ad libitum, whole brain homogenates, read-out: dapansutrile level in the brain
MEASUREMENT LABEL: concentration at 21 days (ng/g)
Give bare numbers, in ng/g.

What value of concentration at 21 days has been reported for the following compound? CS(=O)(=O)CCC#N
47000
